Molecular target: T1, EsCas13d, nuclease-dead (Eubacterium siraeum, UniProt B0MS50, R295A;H300A;R849A;H854A)
T1 sequence: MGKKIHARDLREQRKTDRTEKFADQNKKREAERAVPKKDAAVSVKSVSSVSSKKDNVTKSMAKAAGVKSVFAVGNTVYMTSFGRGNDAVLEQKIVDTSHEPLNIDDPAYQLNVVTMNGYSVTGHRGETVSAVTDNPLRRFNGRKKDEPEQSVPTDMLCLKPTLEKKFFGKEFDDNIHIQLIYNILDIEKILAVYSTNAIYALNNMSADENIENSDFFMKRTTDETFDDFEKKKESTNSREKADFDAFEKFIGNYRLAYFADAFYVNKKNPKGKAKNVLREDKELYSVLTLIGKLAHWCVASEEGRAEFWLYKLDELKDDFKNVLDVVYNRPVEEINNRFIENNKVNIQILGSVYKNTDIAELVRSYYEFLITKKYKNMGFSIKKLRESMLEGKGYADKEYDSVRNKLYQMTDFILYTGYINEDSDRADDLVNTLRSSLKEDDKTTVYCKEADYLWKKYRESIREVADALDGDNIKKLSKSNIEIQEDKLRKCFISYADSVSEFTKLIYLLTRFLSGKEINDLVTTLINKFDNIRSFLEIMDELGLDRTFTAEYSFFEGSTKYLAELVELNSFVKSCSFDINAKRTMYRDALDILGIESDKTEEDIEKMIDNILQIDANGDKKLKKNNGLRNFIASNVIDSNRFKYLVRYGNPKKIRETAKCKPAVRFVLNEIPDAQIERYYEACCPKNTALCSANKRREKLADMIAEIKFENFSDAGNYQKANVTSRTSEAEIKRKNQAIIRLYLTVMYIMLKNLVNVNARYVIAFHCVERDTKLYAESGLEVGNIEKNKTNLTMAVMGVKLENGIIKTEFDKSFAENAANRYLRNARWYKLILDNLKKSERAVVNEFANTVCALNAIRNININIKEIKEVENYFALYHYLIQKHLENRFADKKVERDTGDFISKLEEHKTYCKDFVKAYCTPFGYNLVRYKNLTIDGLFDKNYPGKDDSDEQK
Experiment: crRNA (strand 1, pre-loaded); Mg2+; 40 mM Tris-HCl pH 7.5, 150 mM NaCl, 6 mM MgCl2, 1 mM DTT, 0.1% Tween-20, 0.2 mg/ml BSA; 25 C; 10 min per concentration, then washed
Conditions: tags: His6-TwinStrep-SUMO cleaved; N-terminal SNAP kept (SNAP-Surface 488); label: 3' end held by stalled T7 RNA polymerase
pKd: −log10 of the molar value.

{"columns": ["binder", "pKd"],
 "data": [
  ["target 1 MT 5'PFS GCC 3'PFS UAU (mixed) RNA 1: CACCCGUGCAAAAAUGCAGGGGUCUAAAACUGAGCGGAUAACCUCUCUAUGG RNA 2: GGGAAUGGAUCCACAUCUACGAAUUCGCCCCAUAGAGAGGUUAUCCGCUCAUAUAGAUCGGAAGAGCACACGU", 7.97],
  ["target 1 MT 5'PFS CUG 3'PFS CCG (mixed) RNA 1: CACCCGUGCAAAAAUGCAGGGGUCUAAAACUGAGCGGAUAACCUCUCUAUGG RNA 2: GGGAAUGGAUCCACAUCUACGAAUUCCUGCCAUAGAGAGGUUAUCCGCUCACCGAGAUCGGAAGAGCACACGU", 8.52],
  ["target 1 U19A,C22A (mixed) RNA 1: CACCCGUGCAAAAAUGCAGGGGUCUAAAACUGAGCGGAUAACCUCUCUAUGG RNA 2: GGGAAUGGAUCCACAUCUACGAAUUCGUAACAAAGAGAGGUUAUCCGCUCACCGAGAUCGGAAGAGCACACGU", 7.25],
  ["target 1 MT 5'PFS GAG 3'PFS UUC (mixed) RNA 1: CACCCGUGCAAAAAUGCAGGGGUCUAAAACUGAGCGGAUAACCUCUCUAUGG RNA 2: GGGAAUGGAUCCACAUCUACGAAUUCGAGCCAUAGAGAGGUUAUCCGCUCAUUCAGAUCGGAAGAGCACACGU", 7.43],
  ["target 1 U10C,G12A (mixed) RNA 1: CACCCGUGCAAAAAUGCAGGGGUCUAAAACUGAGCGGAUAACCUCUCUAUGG RNA 2: GGGAAUGGAUCCACAUCUACGAAUUCGUACCAUAGAGAGAUCAUCCGCUCACCGAGAUCGGAAGAGCACACGU", 7.86],
  ["target 2 MT 5'PFS UAA 3'PFS AUC (mixed) RNA 1: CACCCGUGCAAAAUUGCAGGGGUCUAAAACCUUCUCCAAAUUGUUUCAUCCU RNA 2: GGGAAUGGAUCCACAUCUACGAAUUCUAAAGGAUGAAACAAUUUGGAGAAGAUCAGAUCGGAAGAGCACACGU", 8.29],
  ["target 3 insG 3' of 9,insG 3' of 8 (mixed) RNA 1: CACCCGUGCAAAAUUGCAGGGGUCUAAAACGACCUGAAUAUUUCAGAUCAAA RNA 2: GGGAAUGGAUCCACAUCUACGAAUUCGUUUUUGAUCUGAAAUAGUGUCAGGUCUGCAGAUCGGAAGAGCACACGU", 7.24],
  ["target 1 insA 3' of 21,insA 3' of 12 (mixed) RNA 1: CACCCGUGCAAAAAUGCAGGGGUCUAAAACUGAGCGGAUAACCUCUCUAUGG RNA 2: GGGAAUGGAUCCACAUCUACGAAUUCGUACCAAUAGAGAGGAUUAUCCGCUCACCGAGAUCGGAAGAGCACACGU", 7.32],
  ["target 1 insC 3' of 16,insC 3' of 15 (mixed) RNA 1: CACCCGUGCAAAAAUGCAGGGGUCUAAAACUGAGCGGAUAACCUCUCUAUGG RNA 2: GGGAAUGGAUCCACAUCUACGAAUUCGUACCAUAGACGCAGGUUAUCCGCUCACCGAGAUCGGAAGAGCACACGU", 7.08],
  ["target 1 del20,del22 (mixed) RNA 1: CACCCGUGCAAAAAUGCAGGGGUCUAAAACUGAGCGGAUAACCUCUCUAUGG RNA 2: GGGAAUGGAUCCACAUCUACGAAUUCGUACUAGAGAGGUUAUCCGCUCACCGAGAUCGGAAGAGCACACGU", 8.05],
  ["target 1 U8G,A9C (mixed) RNA 1: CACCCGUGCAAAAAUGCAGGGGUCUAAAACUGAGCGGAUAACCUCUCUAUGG RNA 2: GGGAAUGGAUCCACAUCUACGAAUUCGUACCAUAGAGAGGUUCGCCGCUCACCGAGAUCGGAAGAGCACACGU", 7.96],
  ["target 1 insU 3' of 22,insA 3' of 21 (mixed) RNA 1: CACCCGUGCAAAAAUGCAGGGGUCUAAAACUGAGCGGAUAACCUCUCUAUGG RNA 2: GGGAAUGGAUCCACAUCUACGAAUUCGUACUCAAUAGAGAGGUUAUCCGCUCACCGAGAUCGGAAGAGCACACGU", 7.18],
  ["target 1 insC 3' of 19,insG 3' of 16 (mixed) RNA 1: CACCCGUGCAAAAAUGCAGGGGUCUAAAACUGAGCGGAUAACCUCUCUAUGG RNA 2: GGGAAUGGAUCCACAUCUACGAAUUCGUACCAUCAGAGGAGGUUAUCCGCUCACCGAGAUCGGAAGAGCACACGU", 7.21],
  ["target 1 MT 5'PFS GUU 3'PFS UAG (mixed) RNA 1: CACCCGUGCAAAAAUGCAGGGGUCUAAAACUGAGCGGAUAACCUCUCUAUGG RNA 2: GGGAAUGGAUCCACAUCUACGAAUUCGUUCCAUAGAGAGGUUAUCCGCUCAUAGAGAUCGGAAGAGCACACGU", 7.76],
  ["target 2 MT 5'PFS AAU 3'PFS AGU (mixed) RNA 1: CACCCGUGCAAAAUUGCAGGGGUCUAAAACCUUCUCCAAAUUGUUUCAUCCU RNA 2: GGGAAUGGAUCCACAUCUACGAAUUCAAUAGGAUGAAACAAUUUGGAGAAGAGUAGAUCGGAAGAGCACACGU", 8.31]
]}
